Molecular target: Kappa-type opioid receptor (Homo sapiens)
propertyName: IC50
The reply must contain the numeric value and, after it, the unit.

The recorded IC50 with Kappa-type opioid receptor (Homo sapiens) for O=C(CCCCCCCCC(=O)Oc1ccc2c3c1O[C@H]1[C@H](O)CC[C@@]4(O)[C@@H](C2)N(CC2CCC2)CC[C@]314)Oc1ccc2c(c1)[C@@]13CCCCC1[C@@H](C2)N(CC1CCC1)CC3 (stereo partly specified) was 0.6 µM

* * *

Kappa-type opioid receptor (Homo sapiens, UniProt P41145): recorded EC50 for assorted compounds
Sequence (P41145 whole entry): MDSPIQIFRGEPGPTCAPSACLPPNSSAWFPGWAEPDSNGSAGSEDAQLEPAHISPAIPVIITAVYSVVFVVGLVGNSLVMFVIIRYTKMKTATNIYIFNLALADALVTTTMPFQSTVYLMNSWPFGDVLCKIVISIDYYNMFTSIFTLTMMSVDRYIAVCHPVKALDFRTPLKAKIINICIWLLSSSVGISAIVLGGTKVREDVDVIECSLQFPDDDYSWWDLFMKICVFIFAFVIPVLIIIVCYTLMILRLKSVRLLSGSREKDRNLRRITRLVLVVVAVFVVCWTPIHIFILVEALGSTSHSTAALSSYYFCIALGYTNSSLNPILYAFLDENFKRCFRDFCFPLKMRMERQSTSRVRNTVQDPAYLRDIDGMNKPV

// worked examples, EC50 included
O=C(O)CCCCCCCCC(=O)Oc1ccc2c(c1)[C@@]13CCCCC1[C@@H](C2)N(CC1CCC1)CC3 (some centres undefined) : 28 nM
C=CCN1CC[C@]23c4c5ccc(OC(=O)CCCCCCCCC(=O)Oc6ccc7c(c6)[C@@]68CCCCC6[C@@H](C7)N(CC6CCC6)CC8)c4O[C@H]2C(=O)CC[C@@]3(O)[C@H]1C5 (some centres undefined) : 1.6 nM
O=C(CCCCCCCCC(=O)Oc1ccc2c3c1O[C@H]1[C@H](O)CC[C@@]4(O)[C@@H](C2)N(CC2CCC2)CC[C@]314)Oc1ccc2c(c1)[C@@]13CCCCC1[C@@H](C2)N(CC1CCC1)CC3 (some centres undefined) : 3.2 nM

Form: compound = O=C(CCCCCCCCC(=O)Oc1ccc2c3c1O[C@H]1C(=O)CC[C@@]4(O)[C@@H](C2)N(CC2CC2)CC[C@]314)Oc1ccc2c(c1)[C@@]13CCCCC1[C@@H](C2)N(CC1CCC1)CC3 (some centres undefined) ; EC50 = 3.4 nM
